Below, each of the binders is paired with its reported interaction score value.
Target: T1, 4H2600-AA
T1 chain: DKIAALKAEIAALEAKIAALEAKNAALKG
Assay: two-hybrid library CCmax;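 further: natural log of median RNA to DNA barcode read ratio; higher means stronger binding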
Settings: mean of both orientations
Output spec: single numeric token, no unit.

binder="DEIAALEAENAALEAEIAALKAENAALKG [4H140-AA]" quantity_kind="interaction score" value_observed=-1.83
binder="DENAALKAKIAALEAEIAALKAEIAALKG [4H1802-AA]" quantity_kind="interaction score" value_observed=-0.95
binder="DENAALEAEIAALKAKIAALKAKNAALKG [4H1136-AA]" quantity_kind="interaction score" value_observed=0.398
binder="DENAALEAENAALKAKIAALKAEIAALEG [4H1257-AA]" quantity_kind="interaction score" value_observed=0.518

Incoming: Give the value of interaction score reported for the following: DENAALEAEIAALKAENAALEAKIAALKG [4H1110-AA]
Outgoing: -1.01
